molecular target: Recombinant M. tuberculosis MbtI (Mycobacterium tuberculosis); construct: made in house; assay: MbtI enzymatic inhibition assay (fluorimetric, salicylic acid formation); assay type: biochemical; conditions: Series B R = p-NO2Ph; only for compounds with %RA ≤ 25%; read-out: IC50
measure: IC50 (µM)
Write it as a number; the unit µM goes unstated.

Worked cases, answers included:
O=C([O-])c1ncc(-c2ccc([N+](=O)[O-])cc2)o1.[Na+] [3b] : 21.1
O=C(O)c1ncc(-c2ccc([N+](=O)[O-])cc2)[nH]1 [4b] : 27.5

Let's switch to this compound now.
The recorded IC50 for O=C(O)c1ccc(-c2ccc([N+](=O)[O-])cc2)s1 [1b] is 18.6

---

target: Recombinant M. tuberculosis MbtI (Mycobacterium tuberculosis, UniProt P9WFX1); construct: made in house; test: MbtI enzymatic inhibition assay (fluorimetric, salicylic acid formation); assay type: biochemical; details: Series B R = p-NO2Ph; compound 100 µM, 50 µM chorismic acid; read-out: %RA (% residual enzymatic activity at 100 µM)
Sequence (P9WFX1 whole entry): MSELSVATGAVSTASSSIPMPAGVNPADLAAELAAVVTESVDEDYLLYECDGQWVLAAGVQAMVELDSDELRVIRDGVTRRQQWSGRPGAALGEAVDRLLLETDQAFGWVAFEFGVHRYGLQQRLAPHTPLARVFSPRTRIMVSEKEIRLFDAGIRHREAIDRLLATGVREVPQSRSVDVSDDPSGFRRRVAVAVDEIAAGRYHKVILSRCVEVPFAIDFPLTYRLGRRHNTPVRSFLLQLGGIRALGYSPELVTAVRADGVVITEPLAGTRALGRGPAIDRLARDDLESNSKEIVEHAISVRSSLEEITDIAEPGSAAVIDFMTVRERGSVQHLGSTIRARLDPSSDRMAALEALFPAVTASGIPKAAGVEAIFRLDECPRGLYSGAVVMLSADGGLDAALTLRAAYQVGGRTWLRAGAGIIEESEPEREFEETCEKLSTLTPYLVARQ
Simple rule here: remaining activity at 100 µM less than 30% is MET, otherwise NOT MET.

O=C(O)c1ccc(-c2ccc([N+](=O)[O-])cc2)s1 : MET

stdin: Quick check: does O=C(O)c1cn(-c2ccc([N+](=O)[O-])cc2)nn1 have remaining activity at 100 µM under 30%?
stdout: NOT MET

stdin: Quick check: does O=C([O-])c1ncc(-c2ccc([N+](=O)[O-])cc2)o1.[Na+] have remaining activity at 100 µM under 30%?
stdout: MET

stdin: Quick check: does O=C(O)c1nnc(-c2ccc([N+](=O)[O-])cc2)o1 have remaining activity at 100 µM under 30%?
stdout: NOT MET

stdin: Quick check: does O=C([O-])c1ncc(-c2ccc([N+](=O)[O-])cc2)s1.[Na+] have remaining activity at 100 µM under 30%?
stdout: NOT MET

stdin: Quick check: does O=C(O)c1ncc(-c2ccc([N+](=O)[O-])cc2)[nH]1 have remaining activity at 100 µM under 30%?
stdout: MET

---

Target: Recombinant M. tuberculosis MbtI (Mycobacterium tuberculosis, UniProt P9WFX1)
Construct: made in house
Test: MbtI enzymatic inhibition assay (fluorimetric, salicylic acid formation)
Type: biochemical
Details: rounded value; read-out: IC50 against MbtI
Protocol: Recombinant M. tuberculosis MbtI was produced and purified as previously reported. Enzyme activity was determined at 37 °C, measuring the formation of salicylic acid by a fluorimetric assay, slightly modified from Vasan et al.. Briefly, the reactions were performed in a final volume of 400 μL of 50 mM Hepes pH 7.5, 5 mM MgCl2, containing 1-2 μM MbtI, by the addition of chorismic acid, and monitored using a Perkin-Elmer LS3 fluorimeter (Ex. λ = 305 nm, Em. λ = 420 nm). […]
pIC50: −log10 of the molar value.
measure: pIC50

Worked cases, answers included:
O=C(O)c1ccc(-c2cc(C(F)(F)F)cc(C(F)(F)F)c2)o1 : ~4.72
Cc1cc(C#N)cc(-c2ccc(C(=O)O)o2)c1 : ~4.54
N#Cc1cc(-c2ccc(C(=O)O)o2)cc(C(F)(F)F)c1 : ~4.82

Let's switch to this compound now.
The recorded pIC50 for N#Cc1cc(O)cc(-c2ccc(C(=O)O)o2)c1 is ~4.48

---

biological target: Recombinant M. tuberculosis MbtI (Mycobacterium tuberculosis, UniProt P9WFX1); construct: made in house; assay: MbtI enzymatic inhibition assay (fluorimetric, salicylic acid formation); type: biochemical; details: Series A R = m-CNPh; only for compounds with %RA ≤ 25%; read-out: IC50
measure: pIC50
Lab note: report pIC50 as minus log10 of the concentration in molar units, number only.

Worked cases, answers included:
N#Cc1cccc(-c2cnc(C(=O)O)[nH]2)c1 : 4.41
N#Cc1cccc(-c2ccc(C(=O)O)s2)c1 : 4.45

Let's switch to this compound now.
Considering N#Cc1cccc(-c2cnc(C(=O)[O-])s2)c1.[Na+] , its pIC50 with Recombinant M. tuberculosis MbtI (Mycobacterium tuberculosis, UniProt P9WFX1) was recorded as 4.38

---

measure: melting point

The recorded melting point for N#Cc1cccc(-c2cnc(C(=O)[O-])o2)c1.[Na+] is > 300 °C (dec.)

The recorded melting point for O=C([O-])c1ncc(-c2ccc([N+](=O)[O-])cc2)s1.[Na+] is > 300 °C (dec.)

The recorded melting point for O=C(O)c1nnc(-c2ccc([N+](=O)[O-])cc2)o1 is 220 °C (dec.)

The recorded melting point for O=C([O-])c1ncc(-c2ccc([N+](=O)[O-])cc2)o1.[Na+] is > 300 °C (dec.)

The recorded melting point for N#Cc1cccc(-c2nnc(C(=O)O)o2)c1 is 222 °C (dec.)

The recorded melting point for N#Cc1cccc(-c2cnc(C(=O)[O-])s2)c1.[Na+] is > 300 °C (dec.)
